Attribution: PubChem BioAssay (Tox21)

- experiment: qHTS assay to identify small molecule antagonists of the retinoid acid receptor (RAR) signaling pathway - cell viability counter screen (AID 1159551); further: nearly all actives have a fitted effect of over 35% in size
- test context: C3RL4 cells viability, ATP luminescence (CellTiter-Glo), 6 h; series mostly up to 92.4 µM
Inconclusive results are not listed. The source made the active and inactive calls. The call rests on the fitted dose curve; in most records, active means well fitted cell-killing curve with a large enough effect in the repeat runs; inconclusive means weak or mixed curves, or effect the other way; inactive means flat fitted curve, though single readings scatter.
Give your call using only these classes: active, inactive

As a guide, the following entries are already answered.
compound | classification
CC(C)(C)CC(C)(C)c1ccccc1O | active
OCCCCl | inactive
COc1ccc(-n2nc(CCC(=O)N(C)O)cc2-c2ccc(Cl)cc2)cc1 | inactive
COc1ccccc1C=O | inactive
CCO[Si](C)(C)OCC | inactive

Challenge: Test call for this compound, please: CCCCCCCCCCCCCc1ccccc1
Response given: inactive

Challenge: Could you please tell me the result logged for C/C=C/CO in this assay?
Response given: inactive

Challenge: Hi, do you know how Cc1cc(=O)[nH]c(=O)[nH]1 came out in this test?
Response given: inactive

Challenge: Per the assay record, what outcome was assigned to c1cc(OCC2CO2)cc(OCC2CO2)c1 (stereo unspecified) ?
Response given: inactive

Challenge: How did this test come out for OCCCc1cccnc1 ?
Response given: inactive

Challenge: Hi, do you know how O=C[C@H](O)[C@H](O)[C@H](O)CO came out in this test?
Response given: inactive

Challenge: # fetch the recorded call for NC(=O)C(=O)N/N=C/c1ccc([N+](=O)[O-])o1 here
Response given: inactive

Challenge: Hi, sorry to bother you, what did the test record for COc1cccc(OC)c1O ?
Response given: inactive

Challenge: Assay result, entry O=c1cccc[nH]1 — outcome?
Response given: inactive

Challenge: # outcome recorded in this test, key = CCc1cccc(C)c1
Response given: inactive

Challenge: Call for entry CCCCCCCC(OC)OC :
Response given: inactive

###

- experiment: qHTS assay to identify small molecule agonists of the progesterone receptor (PR) signaling pathway - cell viability counter screen (AID 1346799); further: on the % scale 0 is the no-effect control and ±100 the full control effect; nearly all actives have a fitted effect of over 45% in size
- test context: PR-UAS-bla HEK293T viability, CellTiter-Glo luminescence, 16 h; series mostly up to 92.4 µM
Results filed as inconclusive are left out. Calls of active or inactive are those of the source. Calls follow the shape of the full dose curve.
Measured activity change, negative = cytotoxicity by item

compound | observed property | value measured
C=CC(=C)CC/C=C(\C)CCC=C(C)C | activity change, negative = cytotoxicity | 7.16% [at 19 µM] (inactive)

Challenge: Recorded activity change, negative = cytotoxicity of CCC(=O)CC(C)CC (stereo unspecified) , please.
Response given: 1.66% [at 0.349 µM] (inactive)

Challenge: Value lookup for activity change, negative = cytotoxicity; key = O=S(O)O
Response given: -3.11% [at 19 µM] (inactive)

Challenge: Looking for the measured activity change, negative = cytotoxicity of O=C=NCc1cccc(CN=C=O)c1 , can you help?
Response given: -1.39% [at 19 µM] (inactive)

Challenge: I would be grateful if you could share the reported activity change, negative = cytotoxicity for C=C/C=C/C=C/CCCCC .
Response given: -2.82% [at 19 µM] (inactive)

Challenge: activity change, negative = cytotoxicity lookup needed for CCCCCCCCCCCCCCCCCO , thanks.
Response given: -18.8% [at 19 µM] (inactive)

###

- experiment: qHTS assay to identify small molecule antagonists of the sonic hedgehog signaling (Shh) pathway (AID 1259369); further: nearly all actives have a fitted effect of over 45% in size
- test context: NIH/3T3 Gli1-Luc reporter, Shh antagonist, luminescence 24 h; series mostly up to 92.4 µM
Records with an inconclusive call do not appear. Activity calls are given as the source filed them. Calls follow the shape of the full dose curve.
Response enum: active, inactive

compound | classification
[O]=[Zr] | inactive
CC(C)CCOCCC(C)C | inactive
CCCCC(CC)COC(=O)c1ccc(O)cc1 (stereo not drawn) | active
c1ccc(Nc2cccc3ccccc23)cc1 | active

Challenge: Hi, sorry to bother you, what did the test record for COc1ccccc1OCCNCC(O)COc1cccc2[nH]c3ccccc3c12 (stereo not drawn) ?
Response given: active

Challenge: # lookup: test call for Cc1ccc(-n2[nH]c(C)c(N=Nc3cccc(-c4cccc(C(=O)O)c4)c3O)c2=O)cc1C
Response given: inactive

Challenge: Returns: the outcome recorded for OCCCS in this assay.
Response given: inactive

Challenge: What is the recorded call for this compound in the test? O=C(Nc1ccc(Cl)cc1)Nc1ccc(Cl)c(C(F)(F)F)c1
Response given: active

###

- experiment: qHTS assay to identify small molecule antagonists of the sonic hedgehog signaling (Shh) pathway (AID 1259369); further: nearly all actives have a fitted effect of over 45% in size
- test context: NIH/3T3 Gli1-Luc reporter, Shh antagonist, luminescence 24 h; series mostly up to 92.4 µM
Records with an inconclusive call do not appear. The source made the active and inactive calls. The call rests on the fitted dose curve.
Assign a class; possible classes are active, inactive

Challenge: // outcome(item) with item = CN(C)c1ccc(N=NS(=O)(=O)O)cc1
Response given: active

Challenge: I would be grateful if you could indicate the recorded call for Cc1cccc(C)n1 .
Response given: inactive

Challenge: GET /call?item= CC(C)C(=O)OCc1ccccc1 returns the recorded outcome of this test.
Response given: inactive

Challenge: Which outcome did this test record for the compound CN(C)CCOC(c1ccccc1)c1ccccc1 (tested in a mixture with another compound) ?
Response given: active

Challenge: What did this assay record as the result for CC(=O)OC(OC(C)=O)c1ccc([N+](=O)[O-])o1 ?
Response given: active

Challenge: Write down the call the test reported for this compound. Item: N[C@@H](CSSC[C@H](N)C(=O)O)C(=O)O
Response given: active

###

- experiment: qHTS assay for small molecule agonists of the antioxidant response element (ARE) signaling pathway - cell viability counter screen (AID 743203); further: nearly all actives have a fitted effect of over 55% in size
- test context: ARE-bla HepG2 viability, CellTiter-Glo luminescence, 16 h; series mostly up to 73.3 µM
Inconclusive results are not listed. Active and inactive are the calls of the source. The call rests on the fitted dose curve.
Outcome field: choose from active, inactive

compound | classification
Cc1cn[nH]c1 | inactive

Challenge: What is the recorded call for this compound in the test? NC(=O)c1ccccc1N
Response given: inactive

Challenge: Entry CO[C@H]1C=CO[C@@]2(C)Oc3c(C)c(O)c4c(O)c(cc(O)c4c3C2=O)NC(=O)/C(C)=C\C=C/[C@H](C)[C@H](O)[C@@H](C)[C@@H](O)[C@@H](C)[C@H](OC(C)=O)[C@@H]1C : call = ?
Response given: inactive

Challenge: What is the recorded call for this compound in the test? CCCCCCCC/C=C/CCCOC(C)=O
Response given: inactive

Challenge: Identify the outcome logged in this assay for the compound shown: CC1CCCNC1 (configuration not stated)
Response given: inactive

Challenge: Would you mind telling me which call this test gave C/C=C/C(=O)Oc1c(CCCCCC(C)C)cc([N+](=O)[O-])cc1[N+](=O)[O-] ?
Response given: active

Challenge: Assay result, entry CC1=C(/C=C/C(C)=C/C=C/C(C)=C/C(=O)Nc2ccc(O)cc2)C(C)(C)CCC1 — outcome?
Response given: active

Challenge: Outcome? CCCCCCCCCCCCCCCC
Response given: inactive

Challenge: In this assay, the call recorded for O=C1C=CC(=O)N1c1ccccc1 was what?
Response given: active

Challenge: Look up the recorded call for CCCCC(CC)COC(=O)c1ccc(O)cc1 (configuration not stated) in this test.
Response given: inactive

Challenge: Assay outcome for C=CC(=C)CCC=C(C)C : what was it?
Response given: inactive

Challenge: Give the logged outcome of this assay for the following compound: CC(C)(C)C1=CC(=O)C=C(C(C)(C)C)C1=O
Response given: active

###

- experiment: qHTS assay to identify small molecule antagonists of the thyroid receptor (TR) signaling pathway (AID 743065); further: nearly all actives have a fitted effect of over 55% in size
- test context: GH3.TRE-Luc, T3-stimulated luciferase inhibition, 23.5 h; series mostly up to 70.3 µM
Results filed as inconclusive are left out. The source made the active and inactive calls. The call rests on the fitted dose curve; in most records, active means well fitted inhibition curve with a large enough effect in the repeat runs; inconclusive means weak or mixed curves; inactive means no such curve, though single readings can be large or run the other way.
Hi there, use one of these labels in your reply, thanks! True for active, False for inactive

compound | classification
Cc1occc1SSc1ccoc1C | True

Now consider a different compound.
Challenge: Dear all, I need the recorded test outcome for Cc1cn[nH]c1 , thank you.
Response given: False

###

- assayed target: Glucocorticoid receptor (Homo sapiens) (UniProt P04150)
- Sequence (P04150 whole entry, looked up): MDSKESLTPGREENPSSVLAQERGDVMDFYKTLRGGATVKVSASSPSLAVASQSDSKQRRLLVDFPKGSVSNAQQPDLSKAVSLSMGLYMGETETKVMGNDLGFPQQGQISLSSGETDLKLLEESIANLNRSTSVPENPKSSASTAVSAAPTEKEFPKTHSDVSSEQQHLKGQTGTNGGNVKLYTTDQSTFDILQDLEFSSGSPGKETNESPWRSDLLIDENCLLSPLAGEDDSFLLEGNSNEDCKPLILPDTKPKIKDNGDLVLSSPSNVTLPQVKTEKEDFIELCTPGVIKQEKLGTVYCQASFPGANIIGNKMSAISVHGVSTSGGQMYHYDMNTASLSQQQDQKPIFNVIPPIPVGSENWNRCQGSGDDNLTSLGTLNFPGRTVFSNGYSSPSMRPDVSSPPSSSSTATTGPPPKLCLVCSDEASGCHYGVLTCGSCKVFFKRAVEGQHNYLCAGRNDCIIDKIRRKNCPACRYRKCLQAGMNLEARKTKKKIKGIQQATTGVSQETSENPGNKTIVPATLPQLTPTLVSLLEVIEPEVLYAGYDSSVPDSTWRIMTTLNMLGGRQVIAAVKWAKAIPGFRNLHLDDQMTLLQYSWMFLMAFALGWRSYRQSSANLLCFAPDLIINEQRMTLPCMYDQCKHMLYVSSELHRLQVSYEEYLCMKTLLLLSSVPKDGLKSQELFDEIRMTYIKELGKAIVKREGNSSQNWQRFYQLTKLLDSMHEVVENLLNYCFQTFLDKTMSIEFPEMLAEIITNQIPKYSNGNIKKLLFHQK
- experiment: qHTS assay to identify small molecule agonists of the glucocorticoid receptor (GR) signaling pathway (AID 720691); further: on the % scale 0 is the no-effect control and ±100 the full control effect
- test context: GR-bla HeLa, beta-lactamase reporter ratio, 18 h
Results filed as inconclusive are left out. Activity calls are given as the source filed them. Calls come from the whole dose curve; as a rule, active = well fitted activation curve with a large enough effect in the signal ratio in the repeat runs (not every such curve was filed as active); inconclusive = weak or mixed curves, or effect the other way; inactive = no such curve, though single readings can be large or run the other way; the % refers to the signal ratio.
Classes to choose from: t (active), f (inactive)

Illustrative cases are given below, each with its answer.
compound | classification
CC(=O)Oc1ccc(C2(c3ccc(OC(C)=O)cc3)C(=O)Nc3ccccc32)cc1 | f
Cc1c(C(=O)O)cccc1[N+](=O)[O-] | f
Cc1cn[nH]c1 | f
CCC(C)(C)c1cc(O)c(C(C)(C)CC)cc1O | f
CCCCOc1ccc(C(=O)CCN2CCCCC2)cc1 | f
CCN1CCN(c2cc(-c3ccc(F)cc3)c3c(n2)CCCCCC3)CC1 | f

Challenge: // outcome(item) with item = CC1CCCNC1 (stereo unspecified)
Response given: f

Challenge: Hi, sorry to bother you, what did the test record for CC(O)C#CC(C)O (stereo unspecified) ?
Response given: f

Challenge: Could you please tell me the result logged for CN(C)c1ccc(N=Nc2ccccc2C(=O)O)cc1 in this assay?
Response given: f

Challenge: Outcome? CCOC(=O)N1CCC(=C2c3ccc(Cl)cc3CCc3cccnc32)CC1
Response given: f

Challenge: Assay outcome for COC(=O)[C@]1(C)CCC[C@@]2(C)[C@H]1CC=C1C=C(C(C)C)CC[C@@H]12 : what was it?
Response given: f

Challenge: Hi, sorry to bother you, what did the test record for CC1(C)C(=O)N(Br)C(=O)N1Br ?
Response given: f
